Target: recombinant human plasminogen activator inhibitor-1 (PAI-1) (Homo sapiens)
Construct: purchased Molecular Innovations, Royal Oak, Mich
Experiment: Screening for PAI-1 inhibition (residual tPA activity, Spectrozyme-tPA chromogenic substrate)
Format: biochemical
Settings: test compound at 100 Um; pH 6.6 buffer, 140 nM PAI-1, 70 nM tPA
Protocol: Screening for PAI-1 inhibition. Test compounds are dissolved in DMSO at a final concentration of 10 Mm, then diluted 100× in physiologic buffer. […] Following the second incubation, Spectrozyme-Tpa (American Diagnostica, Greenwich, Conn.), a chromogenic substrate for Tpa, is added and absorbance read at 405 nm at 0 and 60 minutes. […]
Returns one of criterion met or criterion not met; criterion met when inhibition at 100 µM is >= 90%.

Query block: Exam item: decide whether the reported inhibition at 100 µM for O=C(O)CO/N=C/c1cn(Cc2ccccc2)c2ccc(OCc3ccc(Br)cc3)cc12 is at least 90%.
Result block: criterion not met

Query block: Do the same for Cn1cc(/C=N/OCC(=O)O)c2cc(OCc3cccc(C(F)(F)F)c3)ccc21 please
Result block: criterion not met

Query block: Do the same for O=C(O)CO/N=C/c1cccc(C#CCOc2ccc(Br)cc2)c1 please
Result block: criterion not met

Query block: Do the same for O=C(O)CO/N=C/c1cccc(-c2cccc(OCc3ccc4ccccc4c3)c2)c1 please
Result block: criterion not met

Query block: Do the same for O=C(O)CO/N=C/c1ccc(-c2cccc(OCc3ccc(C(F)(F)F)cc3)c2)cc1 please
Result block: criterion not met

Query block: Do the same for Cn1cc(/C=N/OCC(=O)O)c2cc(OCc3ccc4ccccc4c3)ccc21 please
Result block: criterion not met

Query block: Do the same for CC(C)Cc1ccc(OCC#Cc2ccc(/C=N/OCC(=O)O)cc2)cc1 please
Result block: criterion not met

Query block: Do the same for C=CCn1cc(/C=N/OCC(=O)O)c2cc(OCc3cccc(Br)c3)ccc21 please
Result block: criterion met

Query block: Do the same for C#CCn1cc(/C=N/OCC(=O)O)c2cc(OCc3cccc(C(F)(F)F)c3)ccc21 please
Result block: criterion met

Query block: Do the same for C=CCn1cc(/C=N/OCC(=O)O)c2cc(OCc3cc(C(F)(F)F)cc(C(F)(F)F)c3)ccc21 please
Result block: criterion not met

Query block: Do the same for CCn1cc(/C=N/OCC(=O)O)c2cc(OCc3ccc(C(F)(F)F)cc3)ccc21 please
Result block: criterion not met

Query block: Do the same for O=C(O)CO/N=C/c1cccc(OCc2cccc(Cl)c2)c1OCc1cccc(Cl)c1 please
Result block: criterion not met

Query block: Do the same for O=C(O)CO/N=C/c1ccc(OCc2ccc(C(F)(F)F)cc2)cc1OCc1ccc(C(F)(F)F)cc1 please
Result block: criterion met

====

Molecular target: recombinant human plasminogen activator inhibitor-1 (PAI-1) (Homo sapiens)
Construct: purchased Molecular Innovations, Royal Oak, Mich
Experiment: Screening for PAI-1 inhibition (residual tPA activity, Spectrozyme-tPA chromogenic substrate)
Type: biochemical
Settings: test compound at 100 Um; pH 6.6 buffer, 140 nM PAI-1, 70 nM tPA
Returns one of Yes or No; Yes when inhibition at 100 µM is >= 90%.

Query block: Exam item: decide whether the reported inhibition at 100 µM for O=C(O)CO/N=C/c1cn(Cc2ccccc2)c2ccc(OCc3ccccc3)cc12 [Compound 41] is at least 90%.
Result block: Yes

Query block: Do the same for C=CCn1cc(/C=N/OCC(=O)O)c2cc(OCc3ccc(Cl)cc3)ccc21 [Compound 45] please
Result block: Yes

Query block: Do the same for O=C(O)CO/N=C/c1ccc(-c2ccc(OCc3c(Cl)cccc3Cl)cc2)cc1 [Compound 111] please
Result block: No

Query block: Do the same for C=CCn1cc(/C=N/OCC(=O)O)c2cc(OCc3cccc(Cl)c3)ccc21 [Compound 16] please
Result block: No

Query block: Do the same for O=C(O)CO/N=C/c1ccc(-c2cccc(OCc3ccc4ccccc4c3)c2)cc1 [Compound 98] please
Result block: No

====

Target: recombinant human plasminogen activator inhibitor-1 (PAI-1) (Homo sapiens, UniProt P05121)
Construct: purchased Molecular Innovations, Royal Oak, Mich
Sequence (P05121 24-402): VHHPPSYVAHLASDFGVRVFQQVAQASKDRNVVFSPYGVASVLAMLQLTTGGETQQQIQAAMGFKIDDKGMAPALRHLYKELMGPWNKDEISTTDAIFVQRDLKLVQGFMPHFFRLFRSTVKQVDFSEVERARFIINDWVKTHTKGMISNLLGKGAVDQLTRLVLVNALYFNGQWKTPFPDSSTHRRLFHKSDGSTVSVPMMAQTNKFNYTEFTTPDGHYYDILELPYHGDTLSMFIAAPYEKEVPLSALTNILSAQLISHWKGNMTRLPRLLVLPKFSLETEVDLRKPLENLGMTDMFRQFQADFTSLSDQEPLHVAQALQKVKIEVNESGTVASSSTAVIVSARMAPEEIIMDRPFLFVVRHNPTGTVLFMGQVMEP
Test: Screening for PAI-1 inhibition (residual tPA activity, Spectrozyme-tPA chromogenic substrate)
Type: biochemical
Conditions: test compound at 100 Um; pH 6.6 buffer, 140 nM PAI-1, 70 nM tPA
MEASURED_PROPERTY: inhibition at 100 µM (%)
Return type: number; implicit unit %.

Query block: For the molecule shown here, O=C(O)CO/N=C/c1cccc(-c2ccc(OCc3cccc(Cl)c3)cc2)c1 , give the reported inhibition at 100 µM.
Result block: 23

Query block: Do the same for O=C(O)CO/N=C/c1ccc(-c2cccc(OCc3ccc(Cl)cc3)c2)cc1 please
Result block: 27

Query block: Do the same for CCn1cc(/C=N/OCC(=O)O)c2cc(OCc3ccc(C)cc3)ccc21 please
Result block: 44

Query block: Do the same for Cc1ccc(COc2cccc(-c3ccc(/C=N/OCC(=O)O)cc3)c2)cc1 please
Result block: 84

Query block: Do the same for O=C(O)CO/N=C/c1ccc(-c2cccc(OCc3c(Cl)cccc3Cl)c2)cc1 please
Result block: 10

Query block: Do the same for C=CCn1cc(/C=N/OCC(=O)O)c2cc(OCc3ccc(C)cc3)ccc21 please
Result block: 73

Query block: Do the same for O=C(O)CO/N=C/c1cccc(-c2ccc(OCc3ccccc3Cl)cc2)c1 please
Result block: 89

Query block: Do the same for O=C(O)CO/N=C/c1ccc(-c2ccc(OCc3ccccc3)cc2)cc1 please
Result block: 5

Query block: Do the same for C=CCn1cc(/C=N/OCC(=O)O)c2cc(OCc3cccc(C)c3)ccc21 please
Result block: 68

Query block: Do the same for C=CCn1cc(/C=N/OCC(=O)O)c2cc(OCc3ccc4ccccc4c3)ccc21 please
Result block: 81

Query block: Do the same for O=C(O)CO/N=C/c1cccc(-c2ccc(OCc3ccc4ccccc4c3)cc2)c1 please
Result block: 30

Query block: Do the same for O=C(O)CO/N=C/c1ccc(-c2cccc(OCc3ccccc3Cl)c2)cc1 please
Result block: 61

Query block: Do the same for Cc1ccc(COc2cccc(/C=N/OCC(=O)O)c2OCc2ccc(C)cc2)cc1 please
Result block: 94

Query block: Do the same for O=C(O)CO/N=C/c1cccc(-c2ccc(OCc3ccc(Cl)c(Cl)c3)cc2)c1 please
Result block: 57

Query block: Do the same for O=C(O)CO/N=C/c1cccc(C#CCOc2cc(C(F)(F)F)cc(C(F)(F)F)c2)c1 please
Result block: 73

Query block: Do the same for C=CCn1cc(/C=N/OCC(=O)O)c2cc(OCc3ccc(C(F)(F)F)cc3)ccc21 please
Result block: 86

Query block: Do the same for O=C(O)CO/N=C/c1cccc(-c2cccc(OCc3cccc(C(F)(F)F)c3)c2)c1 please
Result block: 84

Query block: Do the same for C=CCn1cc(/C=N/OCC(=O)O)c2cc(OCc3ccc(C(C)(C)C)cc3)ccc21 please
Result block: 83

Query block: Do the same for O=C(O)CO/N=C/c1cccc(-c2cccc(OCc3ccc(Cl)c(Cl)c3)c2)c1 please
Result block: 83

Query block: Do the same for CCn1cc(/C=N/OCC(=O)O)c2cc(OCc3cccc(Cl)c3)ccc21 please
Result block: 68

Query block: Do the same for O=C(O)CO/N=C/c1ccc(-c2ccc(OCc3ccccc3Cl)cc2)cc1 please
Result block: 30

Query block: Do the same for O=C(O)CO/N=C/c1cccc(OCc2ccc(Br)cc2)c1OCc1ccc(Br)cc1 please
Result block: 65

Query block: Do the same for Cc1cccc(COc2ccc(-c3cccc(/C=N/OCC(=O)O)c3)cc2)c1 please
Result block: 22

Query block: Do the same for O=C(O)CO/N=C/c1cccc(-c2cccc(OCc3ccc(Cl)cc3)c2)c1 please
Result block: 84

Query block: Do the same for CC(C)(C)c1ccc(COc2ccc(OCc3ccc(C(C)(C)C)cc3)c(/C=N/OCC(=O)O)c2)cc1 please
Result block: 99

Query block: Do the same for O=C(O)CO/N=C/c1ccc(OCc2cccc(Cl)c2)c(OCc2cccc(Cl)c2)c1 please
Result block: 92

Query block: Do the same for O=C(O)CO/N=C/c1ccc(OCc2cccc(Br)c2)cc1OCc1cccc(Br)c1 please
Result block: 91

Query block: Do the same for O=C(O)CO/N=C/c1cccc(-c2ccc(OCc3c(Cl)cccc3Cl)cc2)c1 please
Result block: 85

Query block: Do the same for O=C(O)CO/N=C/c1cn(Cc2ccccc2)c2ccc(OCc3cccc(Br)c3)cc12 please
Result block: 71

Query block: Do the same for O=C(O)CO/N=C/c1cccc(-c2ccc(OCc3ccc(C(F)(F)F)cc3)cc2)c1 please
Result block: 59

Query block: Do the same for Cc1cccc(COc2cccc(-c3cccc(/C=N/OCC(=O)O)c3)c2)c1 please
Result block: 85

Query block: Do the same for O=C(O)CO/N=C/c1ccc(OCc2ccc(F)cc2)cc1OCc1ccc(F)cc1 please
Result block: 72

Query block: Do the same for C#CCn1cc(/C=N/OCC(=O)O)c2cc(OCc3cccc(Cl)c3)ccc21 please
Result block: 62

Query block: Do the same for Cn1cc(/C=N/OCC(=O)O)c2cc(OCc3ccccc3Cl)ccc21 please
Result block: 31
